Would you mind telling me the reported apparent Kd (screen) of each entry?
Target: T1, TNFR1 (Homo sapiens, UniProt P19438)
T1 chain: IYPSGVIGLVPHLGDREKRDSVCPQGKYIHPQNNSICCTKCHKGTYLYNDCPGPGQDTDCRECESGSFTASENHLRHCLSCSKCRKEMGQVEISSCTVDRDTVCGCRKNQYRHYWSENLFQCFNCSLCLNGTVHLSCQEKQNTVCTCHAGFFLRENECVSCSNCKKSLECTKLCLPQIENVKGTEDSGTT
Assay: yeast display SC50
State the value with its unit after it.

Ask | Fill in the blank: the reported apparent Kd (screen) of E45M (designed binder) SMEEEVEKAAKEYEKKKKEAIEKHLEKLKAKDKEAAERFLKELEMAAKEYAKDEAKTMSEEEAKRRAKKYKEKVLLSELSEEEQKEIKEAEEKLVRTILKYVEEAAK is ____.
Reply | 1.69 nM

Ask | Try A105G (designed binder) SMEEEVEKAAKEYEKKKKEAIEKHLEKLKAKDKEAAERFLKELEEAAKEYAKDEAKTMSEEEAKRRAKKYKEKVLLSELSEEEQKEIKEAEEKLVRTILKYVEEGAK next.
Reply | 0.446 nM

Ask | Try L25W (designed binder) SMEEEVEKAAKEYEKKKKEAIEKHWEKLKAKDKEAAERFLKELEEAAKEYAKDEAKTMSEEEAKRRAKKYKEKVLLSELSEEEQKEIKEAEEKLVRTILKYVEEAAK next.
Reply | 0.446 nM

Ask | Try K17C (designed binder) SMEEEVEKAAKEYEKKCKEAIEKHLEKLKAKDKEAAERFLKELEEAAKEYAKDEAKTMSEEEAKRRAKKYKEKVLLSELSEEEQKEIKEAEEKLVRTILKYVEEAAK next.
Reply | 2.73 nM

Ask | Try E12F (designed binder) SMEEEVEKAAKFYEKKKKEAIEKHLEKLKAKDKEAAERFLKELEEAAKEYAKDEAKTMSEEEAKRRAKKYKEKVLLSELSEEEQKEIKEAEEKLVRTILKYVEEAAK next.
Reply | 0.539 nM

Ask | Try E4R (designed binder) SMEREVEKAAKEYEKKKKEAIEKHLEKLKAKDKEAAERFLKELEEAAKEYAKDEAKTMSEEEAKRRAKKYKEKVLLSELSEEEQKEIKEAEEKLVRTILKYVEEAAK next.
Reply | 1.69 nM
